Data origin, for the record: patent US10633407B2

System: S. pneumoniae mef A genotype (second strain so labelled)
assay-explanation: CLSI broth dilution MIC determination
Format: cell-based
details: Gram-positive
assay-endpoint: MIC (µg/mL)
Give bare numbers, in µg/mL.

**Q:** Could you please provide reported MIC for CC[C@H]1OC(=O)[C@H](C)C(=O)[C@H](C)[C@@H](O[C@@H]2OC(C)CC(N(C)C)C2O)[C@](C)(OC)C[C@@H](C)C(=O)[C@H](C)[C@H]2N(CC3CC3Cn3cc(-c4cccc(N)c4)nn3)C(=O)O[C@]12C (some centres unmarked) [FSM-100429] ? Thanks!
**A:** 0.0625

----------
System: S. aureus MRSA: USA300
assay-explanation: CLSI broth dilution MIC determination
Assay type: cell-based
details: Staphylococcus aureus; S. aureus MRSA: USA300 (MP-549, msr(a)); read-out: MIC
So basically, if MIC comes in under 0.5 µg/mL it's True, and if it's 0.5 µg/mL or more it's False.

Here's what some known entries look like.
CC[C@H]1OC(=O)[C@H](C)[C@@H](O[C@H]2C[C@@](C)(OC)[C@@H](O)[C@H](C)O2)[C@H](C)[C@@H](O[C@@H]2O[C@H](C)C[C@H](N(C)C)[C@H]2O)[C@](C)(O)C[C@@H](C)CN(C)[C@H](C)[C@@H](O)[C@]1(C)O [Azithro, azithromycin, reference compound] ... False
CC[C@H]1OC(=O)[C@@](C)(F)C(=O)[C@H](C)[C@@H](O[C@@H]2OC(C)CC(N(C)C)C2O)[C@](C)(OC)C[C@@H](C)C(=O)[C@H](C)[C@H]2N(CC#CCn3cc(-c4cnc(N)s4)nn3)C(=O)O[C@]12C (some centres unmarked) [FSM-100633] ... True
CC[C@H]1OC(=O)[C@@](C)(F)C(=O)[C@H](C)[C@@H](O[C@@H]2OC(C)CC(N(C)C)C2O)[C@](C)(OC)C[C@@H](C)C(=O)[C@H](C)[C@H]2N(CC#CCn3cc(-c4cc(N)ncn4)nn3)C(=O)O[C@]12C (some centres unmarked) [FSM-22745] ... False
CC[C@H]1OC(=O)[C@@](C)(F)C(=O)[C@H](C)[C@@H](O[C@@H]2OC(C)CC(N(C)C)C2O)[C@](C)(OC)C[C@@H](C)C(=O)[C@H](C)[C@H]2N(CC#CCn3cc(-c4cc(N)nc(N)n4)nn3)C(=O)O[C@]12C (some centres unmarked) [FSM-22742] ... False
CC[C@H]1OC(=O)[C@@](C)(F)C(=O)[C@H](C)[C@@H](O[C@@H]2OC(C)CC(N(C)C)C2O)[C@](C)(OC)C[C@@H](C)C(=O)[C@H](C)[C@H]2N(CC#CCn3cc(-c4cc(F)ccn4)nn3)C(=O)O[C@]12C (some centres unmarked) [FSM-100563] ... True
C=C1C(=O)[C@H](C)C[C@@](C)(OC)[C@H](O[C@@H]2OC(C)CC(N(C)C)C2O)[C@@H](C)C(=O)[C@@H](C)C(=O)O[C@H](CC)[C@@]2(C)OC(=O)N(CCCCn3cc(-c4cccc(N)c4)nn3)[C@H]12 (some centres unmarked) [FSM-21828] ... False

**Q:** Threshold test, MIC < 0.5 µg/mL: CC[C@H]1OC(=O)[C@@](C)(F)C(=O)[C@H](C)[C@@H](O[C@@H]2OC(C)CC(N(C)C)C2O)[C@](C)(OC)C[C@@H](C)C(=O)[C@H](C)[C@H]2N(CC#CCn3cc(-c4cccc(N)n4)nn3)C(=O)O[C@]12C (some centres unmarked) [FSM-100573]
**A:** True

**Q:** Criterion: MIC strictly below 0.5 µg/mL. Is it met by CC[C@H]1OC(=O)[C@@](C)(F)C(=O)[C@H](C)[C@@H](O[C@@H]2OC(C)CC(N(C)C)C2O)[C@](C)(OC)C[C@@H](C)C(=O)[C@H](C)[C@H]2N(CC#CCn3cc(-c4cc(OC)ccn4)nn3)C(=O)O[C@]12C (some centres unmarked) [FSM-100576] ?
**A:** True

**Q:** Quick check: does CC[C@H]1OC(=O)[C@H](C)C(=O)[C@H](C)[C@@H](O[C@@H]2OC(C)CC(N(C)C)C2O)[C@](C)(OC)C[C@@H](C)C(=O)C[C@H]2N(CCCCn3cc(-c4cccc(N)c4)nn3)C(=O)O[C@]12C (some centres unmarked) [FSM-21535] have MIC under 0.5 µg/mL?
**A:** False

----------
Test system: A. baumannii imipenem-resistant
assay-explanation: CLSI broth dilution MIC determination
Assay type: cell-based
details: Gram-negative
assay-endpoint: MIC (µg/mL)
Numbers only, in µg/mL.

Your task in this section: give MIC for each listed record.
1. CC[C@H]1OC(=O)[C@@](C)(F)C(=O)[C@H](C)[C@@H](O[C@@H]2OC(C)CC(N(C)C)C2O)[C@](C)(OC)C[C@@H](C)C(=O)[C@H](C)[C@H]2N(C/C=C/Cn3cc(-c4cccc(N)n4)nn3)C(=O)O[C@]12C (some centres unmarked)
2. CC[C@H]1OC(=O)[C@H](C)C(=O)[C@H](C)[C@@H](O[C@@H]2OC(C)CC(N(C)C)C2O)[C@](C)(OC)C[C@@H](C)C(=O)[C@H](C)[C@H]2N(CC#CCn3cc(-c4cccc(N)c4)nn3)C(=O)O[C@]12C (some centres unmarked)
3. CC[C@H]1OC(=O)[C@H](C)C(=O)[C@H](C)[C@@H](O[C@@H]2OC(C)CC(N(C)C)C2O)[C@](C)(OC)C[C@@H](C)C(=O)[C@H](C)[C@H]2N(CC3CC3Cn3cc(-c4cccc(N)c4)nn3)C(=O)O[C@]12C (some centres unmarked) [FSM-100429]

**A:**
[8, 4, 32]

Would you be so kind as to report MIC for each listed record?
1. CC[C@H]1OC(=O)[C@@](C)(F)C(=O)[C@H](C)[C@@H](O[C@@H]2OC(C)CC(N(C)C)C2O)[C@](C)(OC)C[C@@H](C)C(=O)[C@H](C)[C@H]2N(C/C=C/Cn3nnc(-c4ccccn4)n3)C(=O)O[C@]12C (some centres unmarked)
2. CC[C@H]1OC(=O)[C@H](C)C(=O)[C@H](C)[C@@H](O[C@@H]2OC(C)CC(N(C)C)C2O)[C@](C)(OC)C[C@@H](C)C(=O)[C@H](C)[C@H]2N(C/C=C/Cn3nnnc3-c3ccccn3)C(=O)O[C@]12C (some centres unmarked)
3. CC[C@H]1OC(=O)[C@H](C)C(=O)[C@H](C)[C@@H](O[C@@H]2OC(C)CC(N(C)C)C2O)[C@](C)(OC)C[C@@H](C)C(=O)[C@H](C)[C@H]2N(C/C=C/Cn3cc(-c4ccccn4)nn3)C(=O)O[C@]12C (some centres unmarked)
4. CC[C@H]1OC(=O)[C@@](C)(F)C(=O)[C@H](C)[C@@H](O[C@@H]2OC(C)CC(N(C)C)C2O)[C@](C)(OC)C[C@@H](C)C(=O)[C@H](C)[C@H]2N(C/C=C/Cn3cc(-c4nccs4)nn3)C(=O)O[C@]12C (some centres unmarked)
5. CC[C@H]1OC(=O)[C@H](C)C(=O)[C@H](C)[C@@H](O[C@@H]2OC(C)CC(N(C)C)C2O)[C@](C)(OC)C[C@@H](C)C(=O)[C@H](C)[C@H]2N(C/C=C\Cn3cc(-c4cccc(N)c4)nn3)C(=O)O[C@]12C (some centres unmarked)

**A:**
1. 16
2. 32
3. 16
4. 8
5. 32

----------
Tested on: S. pyogenes ATCC 19615
assay-explanation: CLSI broth dilution MIC determination
Assay type: cell-based
details: Streptococcus pyogenes, ATCC19615, S. pyogenes ATCC 19615 (MP-19); read-out: MIC
So I've got a bunch of compounds here, and I need their MIC values.

Consider the following illustrative entries.
CC[C@H]1OC(=O)[C@@](C)(F)C(=O)[C@H](C)[C@@H](O[C@@H]2OC(C)CC(N(C)C)C2O)[C@](C)(OC)C[C@@H](C)C(=O)[C@H](C)[C@H]2N(CC#CCn3cc(-c4cccc(N)n4)nn3)C(=O)O[C@]12C (stereo partly drawn) ... < 0.03 µg/mL
CC[C@H]1OC(=O)[C@@H](C)C(=O)[C@H](C)[C@@H](O[C@@H]2OC(C)CC(N(C)C)C2O)[C@](C)(OC)C[C@@H](C)C(=O)[C@H](C)[C@H]2N(C/C=C/Cn3cc(-c4cccc(N)c4)nn3)C(=O)O[C@]12C (stereo partly drawn) ... < 0.0312 µg/mL
CC[C@H]1OC(=O)[C@H](C)C(=O)[C@H](C)[C@@H](O[C@@H]2OC(C)CC(N(C)C)C2O)[C@](C)(OC)C[C@@H](C)C(=O)[C@H](C)[C@H]2N(CC#CCn3cc(-c4cccc(N)n4)nn3)C(=O)O[C@]12C (stereo partly drawn) ... < 0.03 µg/mL
C=C1C(=O)[C@H](C)C[C@@](C)(OC)[C@H](O[C@@H]2OC(C)CC(N(C)C)C2O)[C@@H](C)C(=O)[C@@H](C)C(=O)O[C@H](CC)[C@@]2(C)OC(=O)N(CCCCn3cc(-c4cccc(N)c4)nn3)[C@H]12 (stereo partly drawn) ... ≤ 0.0312 µg/mL
CC[C@H]1OC(=O)[C@@](C)(F)C(=O)[C@H](C)[C@@H](O[C@@H]2OC(C)CC(N(C)C)C2O)[C@](C)(OC)C[C@@H](C)C(=O)C[C@H]2N(CCCCn3cc(-c4cccc(N)c4)nn3)C(=O)O[C@]12C (stereo partly drawn) ... ≤ 0.0312 µg/mL

Okay, now this compound:
**Q:** // fetch MIC given entry CC[C@H]1OC(=O)[C@H](C)[C@@H](O[C@H]2C[C@@](C)(OC)[C@@H](O)[C@H](C)O2)[C@H](C)[C@@H](O[C@@H]2O[C@H](C)C[C@H](N(C)C)[C@H]2O)[C@](C)(O)C[C@@H](C)CN(C)[C@H](C)[C@@H](O)[C@]1(C)O [Azithro, azithromycin, reference compound]
**A:** < 0.0312 µg/mL
